Protocol notes: kinetic solubility
Assay type: physicochemical
Test conditions: normal saline, pH 7.4
Quantity measured: solubility kinetic (µg/mL)
Supply the numeric figure in µg/mL, leaving out any unit text.

Bench note: what solubility kinetic did "CCCCNc1ncc2c(-c3ccc(CN4CCN(C)CC4)cc3)cn([C@H]3CC[C@H](O)CC3)c2n1" show?
38
